This collection of values is drawn from patent US20250276075A1.

Affinity ELISA CPE mutant ratio (1:9, pH 6.0/7.4): recorded values
Target: T1, Axl (Homo sapiens, UniProt P30530)
T1 sequence (P30530 26-451 limits assumed): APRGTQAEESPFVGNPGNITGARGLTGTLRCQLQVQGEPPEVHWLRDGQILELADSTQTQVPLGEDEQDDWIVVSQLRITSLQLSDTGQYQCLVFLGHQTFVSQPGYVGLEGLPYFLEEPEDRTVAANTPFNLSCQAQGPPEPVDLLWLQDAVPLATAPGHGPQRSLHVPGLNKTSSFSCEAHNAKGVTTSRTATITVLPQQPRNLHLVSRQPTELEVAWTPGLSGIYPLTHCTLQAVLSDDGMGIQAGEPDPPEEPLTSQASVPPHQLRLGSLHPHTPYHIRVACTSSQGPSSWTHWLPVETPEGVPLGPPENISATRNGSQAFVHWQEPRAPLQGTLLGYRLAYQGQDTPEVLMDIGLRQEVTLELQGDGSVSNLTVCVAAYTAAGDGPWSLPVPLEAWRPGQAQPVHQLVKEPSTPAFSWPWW
Test: Affinity ELISA of CPE mutant antibodies for binding to Axl at pH 6.0 over pH 7.4
Conditions: heavy chain variable region mutants; 1:9 dilution

Would you please look over these solved cases?
* HC-E102G (antibody, V domains shown) VH: EVQLVQSGAEVKKPGATVKISCKVSGYSFTGHTMNWIRQPPGKGLEWIGLIKPSNGGTSYNQKFKGRVTISADKSISTAYLQWSSLKASDTAMYYCAHGHYGSYFAMDYWGQGTLVTVSS VL: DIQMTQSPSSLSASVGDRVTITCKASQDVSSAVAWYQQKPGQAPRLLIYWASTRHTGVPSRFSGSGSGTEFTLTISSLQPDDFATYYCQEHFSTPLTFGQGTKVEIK | 2.677
* HC-E102I (antibody, V domains shown) VH: EVQLVQSGAEVKKPGATVKISCKVSGYSFTGHTMNWIRQPPGKGLEWIGLIKPSNGGTSYNQKFKGRVTISADKSISTAYLQWSSLKASDTAMYYCAHGHYISYFAMDYWGQGTLVTVSS VL: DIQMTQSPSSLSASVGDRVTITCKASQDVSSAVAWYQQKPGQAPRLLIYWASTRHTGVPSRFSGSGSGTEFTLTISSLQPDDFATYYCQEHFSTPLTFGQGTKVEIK | 1.696
* HC-S103Q (antibody, V domains shown) VH: EVQLVQSGAEVKKPGATVKISCKVSGYSFTGHTMNWIRQPPGKGLEWIGLIKPSNGGTSYNQKFKGRVTISADKSISTAYLQWSSLKASDTAMYYCAHGHYEQYFAMDYWGQGTLVTVSS VL: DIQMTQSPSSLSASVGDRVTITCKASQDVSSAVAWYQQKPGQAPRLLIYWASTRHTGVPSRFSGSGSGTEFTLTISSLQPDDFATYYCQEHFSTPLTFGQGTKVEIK | 2.256

Query: Request the reported Affinity ELISA CPE mutant ratio (1:9, pH 6.0/7.4) associated with HC-F105T (antibody, V domains shown) VH: EVQLVQSGAEVKKPGATVKISCKVSGYSFTGHTMNWIRQPPGKGLEWIGLIKPSNGGTSYNQKFKGRVTISADKSISTAYLQWSSLKASDTAMYYCAHGHYESYTAMDYWGQGTLVTVSS VL: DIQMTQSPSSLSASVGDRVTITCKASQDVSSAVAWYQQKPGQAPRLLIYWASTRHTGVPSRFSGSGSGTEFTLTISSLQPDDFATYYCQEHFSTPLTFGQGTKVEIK
Reply: 4.021

Query: Request the reported Affinity ELISA CPE mutant ratio (1:9, pH 6.0/7.4) associated with HC-H100E (antibody, V domains shown) VH: EVQLVQSGAEVKKPGATVKISCKVSGYSFTGHTMNWIRQPPGKGLEWIGLIKPSNGGTSYNQKFKGRVTISADKSISTAYLQWSSLKASDTAMYYCAHGEYESYFAMDYWGQGTLVTVSS VL: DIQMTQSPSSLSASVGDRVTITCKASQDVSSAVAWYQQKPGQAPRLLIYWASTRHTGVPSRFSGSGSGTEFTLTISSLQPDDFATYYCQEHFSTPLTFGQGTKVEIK
Reply: 3.623

Query: Request the reported Affinity ELISA CPE mutant ratio (1:9, pH 6.0/7.4) associated with HC-E102L (antibody, V domains shown) VH: EVQLVQSGAEVKKPGATVKISCKVSGYSFTGHTMNWIRQPPGKGLEWIGLIKPSNGGTSYNQKFKGRVTISADKSISTAYLQWSSLKASDTAMYYCAHGHYLSYFAMDYWGQGTLVTVSS VL: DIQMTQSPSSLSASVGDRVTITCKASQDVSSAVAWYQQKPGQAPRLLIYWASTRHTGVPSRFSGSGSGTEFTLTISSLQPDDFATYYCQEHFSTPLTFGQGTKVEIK
Reply: 2.698
